IC50 values for Aurora kinase B (Homo sapiens, UniProt Q96GD4) compiled from several publications are listed below.

Known results for compounds:
Q: // fetch IC50; item: O=C(c1cnccn1)N1CCN(Cc2cccc(Nc3ncc(Cl)s3)n2)CC1 ; system: Aurora kinase B (Homo sapiens, UniProt Q96GD4)
A: 2.5 µM

Q: # lookup: Aurora kinase B (Homo sapiens, UniProt Q96GD4) IC50, key = O=C1Nc2ncc(Br)cc2C1=Cc1ccc2c(/C=C/c3ccncc3)n[nH]c2c1 (mixture of isomers)
A: < 5 µM

Q: Report value only: IC50, Aurora kinase B (Homo sapiens, UniProt Q96GD4), CN(C)c1ccc(C#Cc2n[nH]c3cc(C=C4C(=O)Nc5ccccc54)ccc23)cc1 (mixture of isomers)
A: < 5 µM

Q: Fill in IC50 for NC(=O)[C@H]1[C@@H]2CC3NNC(=O)Cc4cccc(c4)Nc4ncc(F)c(n4)N[C@@H]1[C@@H]3C2 (stereo partly shown) tested with Aurora kinase B (Homo sapiens, UniProt Q96GD4).
A: 0.001 to 0.1 µM

Q: Please report IC50 with Aurora kinase B (Homo sapiens, UniProt Q96GD4) for item COc1cc2c(Oc3ccc(NC(=O)c4cccs4)cc3)ccnc2cc1OCC[C@H](N)C(=O)O .
A: < 2 µM

***
Q: Provide IC50, tested on Aurora kinase B (Homo sapiens, UniProt Q96GD4), for CC(C)(O)c1nc2cc(Nc3ncc(Cl)c(NC4CCN(c5ccc(C#N)nn5)CC4)n3)ccn2n1 .
A: 0.2 µM

Q: Using Aurora kinase B (Homo sapiens, UniProt Q96GD4) as the test system, report measured IC50 of CC(C)(C)OC(=O)Nc1ccc2c(c1)NC(=O)/C2=C/c1ccc2cn[nH]c2c1 .
A: < 5 µM

---

Collected IC50 for UniProt Q96GD4 across several studies; compounds listed below.
EXPERIMENTAL ENDPOINT: IC50 (nM)

I = CC(C)(O)Cc1nc2cc(Nc3ncc(Cl)c(NC4CCN(c5ccc(C#N)nn5)CC4)n3)ccn2n1
II = NC(=O)c1cccc2c(N[C@H](CN3CC(O)C3)c3ccc(F)c(F)c3)ncnc12
III = O=C(c1cccc(C(F)(F)F)c1F)N1CCN(Cc2cncc(Nc3cc[nH]n3)n2)CC(O)C1 (stereo not shown)
Q: sort_by: IC50; order: ascending; scope: items listed above In your reply, arrange the labels in the requested order.
A: I, II, III
(I: 132 nM, II: 210 nM, III: 7400 nM)

---

A compilation of IC50 values for Aurora kinase B (Homo sapiens, UniProt Q96GD4) from the published literature.
EXPERIMENTAL ENDPOINT: IC50 (nM)

Some compounds with recorded IC50:
Q: Output IC50 of CN(C)C(=O)c1nc2cc(Nc3ncc(Cl)c(NC4CCN(c5ccc(C#N)nn5)CC4)n3)ccn2n1
A: 163

Q: Fill in reported IC50 for this entry: Cc1cc(Nc2nccc(-c3c[nH]c4ccccc34)n2)ccc1N1CCSCC1
A: 636

Q: // fetch IC50 given entry CC1CN(c2ccc(Nc3nccc(-c4c[nH]c5ccccc45)n3)cc2)CC(C)O1 (centres unmarked)
A: 158

P = CC(C)(O)Cc1nc2cc(Nc3ncc(Cl)c(NC4CCN(c5ccc(C#N)cn5)CC4)n3)ccn2n1
Q = CC(=O)c1c(C)[nH]c(/C=C2\C(=O)Nc3ccc(S(=O)(=O)N4CCc5ccccc54)cc32)c1CCC(=O)O
Q: For the two items P and Q , which reports the higher IC50 value? Please identify the chosen entry by its label.
A: Q

---

pIC50: −log10 of the molar value.
Collected from the literature: pIC50 of various molecules toward UniProt Q96GD4.

Q: State the measured pIC50 (UniProt Q96GD4) of O=C(Nc1ccc2[nH]nc(-c3ccc(CCN4CCOCC4)cc3)c2c1)C(c1ccsc1)N1CCCC1 (stereo not shown)
A: ≥ 5.30

Q: Please respond with reported pIC50 (system UniProt Q96GD4) for Nc1ccc(NC(=O)c2ccc(C(F)(F)F)cc2)cc1 .
A: 6.52 to 9.00

Q: Give pIC50 for CC(C)(O)C1CCN(c2ccc(-c3n[nH]c4ccc(C(=O)NC(c5ccccc5)C5CC5)cc34)cc2)CC1 (stereo not shown) tested on UniProt Q96GD4.
A: ≥ 5.30

Q: Tell me its pIC50 on UniProt Q96GD4: O=C(c1cccc(Cl)c1F)N1CCN(Cc2cc(-c3ncn[nH]3)cc(Nc3nccs3)n2)CC1
A: 6.10

Q: Enter measured pIC50, system UniProt Q96GD4, for the molecule shown: O=C1Nc2ccccc2[C@]12C[C@H]2c1ccc2c(I)n[nH]c2c1 (relative stereo)
A: 6.00 to 7.00

Q: Fill in: pIC50 on UniProt Q96GD4, entry CCOc1cccc(-c2nc(Nc3cc(C)[nH]n3)cc(N3CCN(C)CC3)n2)c1
A: ≥ 6.00

More entries:
Q: Quote UniProt Q96GD4 pIC50 for entry CCC(C)CS(=O)(=O)N[C@H]1COC2C1OC[C@H]2Nc1nc(Nc2cnn(C)c2)ncc1Cl (stereo partly shown) .
A: 7.60

Q: Tell me pIC50 of COc1cc2c(Oc3ccc(NC(=O)c4ccccc4)cc3)ccnc2cc1OCCC[C@@H](N)C(=O)O when tested on UniProt Q96GD4.
A: > 5.70

Q: Under UniProt Q96GD4: report pIC50 of Fc1cnc2nc1NC1CCCC(C1)OC/C=C/COc1cccc(c1)N2 (stereo not shown) .
A: 6.00 to 7.00

Q: // fetch pIC50 for CC(=O)N1Cc2cccc(c2)Nc2ncc(F)c(n2)N[C@@H]2[C@@H]3C[C@@H](C[C@H]3C1)[C@@H]2C(=O)O ; system: UniProt Q96GD4
A: < 5.20

---

pIC50: −log10 of the molar value.
The molecules below each have a reported pIC50 tested on Aurora kinase B (Homo sapiens, UniProt Q96GD4); the values come from various publications.
EXPERIMENTAL ENDPOINT: pIC50

Examples from the recorded data:
Q: Look up and state reported pIC50 for Cc1cc(Nc2nc(CC3(C(=O)O)CCN(C(=O)c4cccc(C(F)(F)F)c4F)CC3)ccc2F)n[nH]1
A: 6.47

Q: Identify pIC50 associated with the molecule O=C(c1cccc(Cl)c1F)N1CCN(Cc2cc(N3CCOC3=O)cc(Nc3nccs3)n2)CC1
A: 6.08

Q: Report measured pIC50; entry is NC(=O)c1cccc2c(N[C@H](CN3CCC3)c3cc(F)ccc3F)ncnc12
A: 6.64

I = NC(=O)c1cccc2c(N[C@H](CN3CCC3)c3ccc(C(F)(F)F)cc3)ncnc12
II = CCNS(=O)(=O)N1CC2CC(Nc3nc(Nc4cnn(CC(C)O)c4)ncc3Cl)CC2C1 (centres unmarked)
Q: Param pair: I , II . Output: the one whose pIC50 is numerically greater. Answer = label.
A: II

---

Collected literature values of IC50 measured for Aurora kinase B (Homo sapiens).

Worked set:
Q: Enter measured IC50, system Aurora kinase B (Homo sapiens), for the compound shown: O=C1Nc2ccccc2[C@]12C[C@H]2c1ccc2c(/C=C/c3ccccn3)n[nH]c2c1 (relative stereo)
A: < 100 nM

Q: Please report IC50 with Aurora kinase B (Homo sapiens) for item Nc1ccc2c(c1)/C(=C\c1ccc3[nH]nnc3c1)C(=O)N2 .
A: < 5000 nM

Q: Determine reported IC50 for Cn1cc(Nc2ncc(Cl)c(NC3CC4CN(S(=O)(=O)NC5CC5)CC4C3)n2)cn1 (stereo not drawn) ; test system: Aurora kinase B (Homo sapiens).
A: 0.8 nM

Q: Write down measured IC50 (Aurora kinase B (Homo sapiens)) for this compound. COc1cc2c(Sc3ccc(NC(=O)C4CC4)cc3)ccnc2cc1OCC[C@H](N)C(=O)OC1CCCC1
A: > 5000 nM

Q: Please respond with reported IC50 (system Aurora kinase B (Homo sapiens)) for CN1CCC(Oc2ccc(-c3n[nH]c4ccc(NC(=O)C(c5ccsc5)N5CCCC5)cc34)cc2)CC1 (stereo not drawn) .
A: ≤ 5000 nM

Q: Give IC50 for this entry on Aurora kinase B (Homo sapiens): COc1ccc(C(=O)Nc2ccc(Oc3ccnc4cc(OCC[C@H](N)C(=O)OC5CCCC5)c(OC)cc34)cc2)cc1
A: 2000 to 5000 nM

Q: For Aurora kinase B (Homo sapiens), give IC50 of the listed compound: CN(C)CCCOc1ccc(-c2n[nH]c3ccc(NC(=O)C(c4ccsc4)N4CCCC4)cc23)cc1 (stereo not drawn)
A: ≤ 5000 nM

Q: Report IC50 from Aurora kinase B (Homo sapiens) testing of O=C(c1cccc(C(F)(F)F)c1)N1CCN(Cc2cccc(Nc3ncns3)n2)CC1
A: 8800 nM

Then there is this compound:
Q: State measured IC50 of the compound COc1ccc2c(c1)[C@]1(C[C@H]1c1ccc3c(/C=C/c4cc(F)c(CN(C)C)c(F)c4)n[nH]c3c1)C(=O)N2 (relative stereo) with Aurora kinase B (Homo sapiens).
A: < 100 nM

---

IC50 for Aurora kinase B (Homo sapiens) - collated from the literature.

Q: Name the recorded IC50 of CCOc1cc(OC[C@H]2CCCCN2)c2c(Nc3cnn(CC(=O)Nc4cccc(F)c4F)c3)ncnc2c1 , assay system Aurora kinase B (Homo sapiens).
A: 1.4 nM

More entries:
Q: Provide Aurora kinase B (Homo sapiens) IC50 reading for Cc1cc(Nc2cccc(CN3C[C@@H]4C[C@H]3CN4C(=O)c3cccc(Cl)c3F)n2)n[nH]1 .
A: 1700 nM

Q: Name the value of IC50 reported for Cc1cc(C)c(NC(=O)Nc2ccc3[nH]nc(-c4ccc(OC5CCN(C)CC5)cc4)c3c2)c(Cl)c1 when tested on Aurora kinase B (Homo sapiens).
A: ≤ 5000 nM

Q: Enter IC50 (test system Aurora kinase B (Homo sapiens)) for O=C(Nc1ccc2[nH]nc(-c3ccc(N4CCOCC4)cc3)c2c1)C(c1cccs1)N1CCCC1 (centres unmarked)
A: ≤ 5000 nM
